# literature pull: Muscarinic acetylcholine receptor M3 (Homo sapiens) pKi
pKi: −log10 of the molar value.
Mark false (0) for pKi values under 7, and true (1) for everything at or above.

Field: example entries. Status: answers known.
- COc1ccc([C@H](Cc2c(Cl)c[n+]([O-])cc2Cl)OC(=O)c2ccc(CNC(C(=O)O[C@@H]3CCN(C)C3)c3ccccc3)s2)cc1OC (stereo in doubt; 91f): true (1)
- Cc1c(NC2CC2)nc(C2CC2)nc1N1CCC(F)(F)CC1: true (1)
- OC1(C2=CN3CCC2CC3)c2ccccc2CCc2ccccc21: false (0)
- CC(C1=C(CCN2CCCC2)Cc2ccccc21)c1ccccn1 (stereo not given): false (0)
- O=C(NCCC1CCNCC1)[C@H]1CCCN1C(=O)[C@@H]1C[C@@H](O)CN1C(=O)CC(c1ccc(Cl)cc1)(c1ccc(Cl)cc1)c1ccc(Cl)cc1: true (1)

Item "OC(CCCN1CCN(CCCC(O)(c2ccccc2)c2ccccc2)CC1)(c1ccccc1)c1ccccc1" with pKi of 7 or above?
false (0)

Given the entry CC(C1=C(CCN(C)CCF)Cc2ccccc21)c1ccccn1 (stereo not given) , answer whether its pKi meets or surpasses 7.
false (0)

Evaluate "C[N+](C)(C)C[C@@H]1C[S@](=O)[C@@](c2ccccc2)(C2CCCCC2)O1.[I-]" : pKi at minimum 7?
true (1)

State whether the measured pKi reaches 7, counting equality as reaching it, for "CCc1ccc(N2CCN(Cc3c[nH]c4ncccc34)CC2)cc1"
false (0)

Decide: pKi of "C[C@H]1CC[C@H](C)N1CCCOc1ccc(-c2ccc(C(=O)N3CCOCC3)cc2)cc1" >= 7?
false (0)

* * *

pKi values for Muscarinic acetylcholine receptor M3 (Homo sapiens, UniProt P20309), compiled from several publications.
// pKi is dimensionless: -log10 of concentration (M)

* CS(=O)(=O)Nc1cc([C@@H](O)CNCCCCCCCCN2CCC(OC(=O)Nc3ccccc3-c3ccc(O)c(Cl)c3)CC2)ccc1O | 8.96
* O=C1CCc2ccccc2N1CCCN1CCC(CCCCCCCO)CC1 | 6.20
* CS(=O)(=O)Nc1cc([C@@H](O)CNCCCCCCCCCN2CCC(OC(=O)Nc3cc(F)ccc3-c3ccc(O)c(Cl)c3)CC2)ccc1O | 8.36

Identify pKi associated with the compound CN(C)CCC1=C(C(c2ccccc2)c2ccccn2)c2ccccc2C1 (stereo not given)
7.17

Indicate its recorded pKi; the compound in question is "O=C(Nc1ccccc1-c1ccccc1)OC1CCN(CCCCCCCCNC[C@H](O)c2ccc(O)c3[nH]c(=O)ccc23)CC1"
9.49

* * *

System: Muscarinic acetylcholine receptor M3 (Homo sapiens, UniProt P20309) | Read-out: pKi | Origin: multiple publications
Sequence (P20309 whole entry): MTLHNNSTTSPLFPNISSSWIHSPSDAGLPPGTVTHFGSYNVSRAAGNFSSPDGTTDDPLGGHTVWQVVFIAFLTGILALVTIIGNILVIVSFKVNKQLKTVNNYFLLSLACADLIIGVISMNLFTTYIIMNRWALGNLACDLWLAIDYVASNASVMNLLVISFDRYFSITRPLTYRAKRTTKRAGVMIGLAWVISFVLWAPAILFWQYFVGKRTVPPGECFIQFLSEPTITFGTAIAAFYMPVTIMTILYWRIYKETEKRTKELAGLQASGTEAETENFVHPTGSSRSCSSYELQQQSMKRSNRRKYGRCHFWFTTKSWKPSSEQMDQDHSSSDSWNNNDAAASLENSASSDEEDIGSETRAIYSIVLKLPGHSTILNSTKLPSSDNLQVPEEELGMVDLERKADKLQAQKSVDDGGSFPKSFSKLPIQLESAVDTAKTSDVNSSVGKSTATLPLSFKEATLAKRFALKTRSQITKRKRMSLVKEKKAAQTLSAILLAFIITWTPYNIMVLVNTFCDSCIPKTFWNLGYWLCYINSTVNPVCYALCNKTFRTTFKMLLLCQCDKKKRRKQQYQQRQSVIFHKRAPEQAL
pKi: −log10 of the molar value.
Note: every record was labeled by where its pKi sits among small value (below 6), mid value (6 to below 7), large value (7 or more)

* CN(Cc1cccc(F)c1)[C@H]1C2C3CC4C2C(=O)C2C4C3C21 (stereo partly specified) | small value

For the record "Cc1c(NC2CC2)nc(C2CC2)nc1N1CCc2ccccc2C1" , report the class its pKi corresponds to.
mid value

Categorize the following entry: "CN1CCC=C(c2nsnc2OCCOCCOCCOCCO)C1"
mid value

Categorize the following entry: "COc1ccc(CCN(C(=O)OC2CCN(C)CC2)c2ccccc2)cc1"
mid value

// return the class label for "CN(C)CCNC(=O)C1=C(Cc2ccncc2)c2ccccc2C1"
small value

Which class does "C=C(c1ccc(S(=O)(=O)c2ccc(OC)cc2)cc1)C1CCN(C2CCN(C(=O)OCC)CC2)CC1" fall in?
large value

// return the class label for "O=C(NCC1CCN(CC2CCC2)CC1)[C@H]1CCCN1C(=O)[C@@H]1C[C@@H](O)CN1C(=O)CC(c1ccc(F)cc1)(c1ccc(F)cc1)c1ccc(F)cc1"
large value

Note: place this compound into its band. Item: "CCCCN1CCC(OC(=O)Nc2ccccc2-c2ccccc2)CC1"
large value

Lab log: "CS(=O)(=O)Nc1cc([C@@H](O)CNCCCCCCCCCN2CC[C@@H](OC(=O)Nc3ccccc3-c3ccc(O)c(Cl)c3)C2)ccc1O" — assign pKi category
large value

Which bin should I file "CCC1CCN(c2nc(C3CC3)nc(NC3CC3)c2C)CC1" under?
large value

GET /class?item= "Cc1cc(NC(=O)CCN2CCC(OC(=O)Nc3ccccc3-c3ccccc3)CC2)ccc1CNC[C@H](O)c1ccc(O)c2[nH]c(=O)ccc12"
large value

// bin(item) where item = "CCCCCCCCN1CCC(OC(=O)Nc2ccccc2-c2ccccc2)CC1"
large value

Into which category would you place "COc1ccc(NC(=O)N2CCN(c3ccc(SC)cc3)CC2)cc1N1CCN(C)CC1" ?
small value

# bin lookup: classify "Cc1c(NC2CC2)nc(C2CC2)nc1N1CCC(O)CC1" by its pKi
mid value
